assay.details: qHTS RealTime-Glo MT Cell Viability Assay in HepG2 cells - 8 hour (AID 1224873); also: % is scaled to controls: 0 for no effect and ±100 for the full control effect; nearly all actives have a fitted effect of over 55% in size
condition.info: RealTime-Glo luminescence; series mostly up to 76.8 µM
Records with an inconclusive call do not appear. Calls of active or inactive are those of the source. Calls follow the shape of the dose curve; as a rule, active = well fitted cell-killing curve with a large enough effect in the repeat runs; inconclusive = weak or mixed curves; inactive = flat fitted curve, though single readings scatter.
quantity.kind: viability change, negative = cytotoxic

Solved entries:
molecule: CN1CC(=O)NC1=N
result: inactive

molecule: CN1CCC(=C2c3ccccc3CC(=O)c3sccc32)CC1
result: inactive

molecule: CCC(C)S (centres undefined)
result: 0.999% [at 2.72 µM] (inactive)

molecule: CC1(C)CO[C@@H](CC(=O)O)CN1
result: inactive

molecule: Oc1ccc(C2CNCCc3c2cc(O)c(O)c3Cl)cc1 (centres undefined)
result: inactive

molecule: Cc1cc2c(cc1S(N)(=O)=O)S(=O)(=O)CCC2
result: inactive

Lab note: measured viability change, negative = cytotoxic of CCCCCCOC(=O)CCCCC(=O)OCCCCCC was inactive

Lab note: measured viability change, negative = cytotoxic of N=C(N)c1ccccc1 was inactive

Lab note: measured viability change, negative = cytotoxic of CO[Si](CCCOCC1CO1)(OC)OC (centres undefined) was inactive

Lab note: measured viability change, negative = cytotoxic of COC(=O)NN was inactive

Lab note: measured viability change, negative = cytotoxic of CCCN1CCCC[C@H]1C(=O)Nc1c(C)cccc1C was inactive

###

Parameter: max response. Scope: all listed entries.
assay.details: qHTS RealTime-Glo MT Cell Viability Assay in HEK293 cells - 40 hour (AID 1224874); also: % is scaled to controls: 0 for no effect and ±100 for the full control effect; nearly all actives have a fitted effect of over 50% in size
condition.info: RealTime-Glo luminescence; active compounds read low
Results filed as inconclusive are left out. Calls of active or inactive are those of the source. The call rests on the fitted dose curve; in most records, active means well fitted cell-killing curve with a large enough effect in the repeat runs; inconclusive means weak or mixed curves, or effect the other way; inactive means flat fitted curve, though single readings scatter.

compound: Cc1cc(O)cc2c1O[C@](C)(CCC[C@H](C)CCC[C@H](C)CCCC(C)C)CC2
max response: 5.25% (inactive)

compound: OCCCC1CCCCC1
max response: 11.3% (inactive)

compound: CC(C)(C)NCCNC(C)(C)C
max response: -0.754% (inactive)

compound: CCN1CCC[C@H]1CNC(=O)c1c(O)c(Cl)cc(Cl)c1OC
max response: -0.593% (inactive)

compound: CCc1ccc(O)c(OC)c1
max response: 4.24% (inactive)

compound: CCO[Si](CCC1CCC2OC2C1)(OCC)OCC (centres undefined)
max response: 14.1% (inactive)

Please look at the following compound next.
Lab note: measured max response of N=C(N)c1ccccc1 was -0.53% (inactive)

###

assay.details: qHTS RealTime-Glo MT Cell Viability Assay in HEK293 cells - 8 hour (AID 1224887); also: top concentration of the series differs between compounds; % is scaled to controls: 0 for no effect and ±100 for the full control effect; nearly all actives have a fitted effect of over 50% in size
condition.info: RealTime-Glo luminescence; series mostly up to 76.8 µM
Description: U.S. Tox21 Program National Center for Advancing Translational Sciences [NCATS] NIH Chemical Genomics Center [NCGC] U.S. Environmental Protection Agency [EPA] National Institutes of Environmental Health Sciences [NIEHS] National Toxicology Program [NTP] U.S. Food and Drug Administration [FDA] Tox21 Assay Overview: Measure of cell viability is critical in the cell-base assay. Analysis of cell viability is necessary for the characterization of cell responses to cytotoxic drugs and environmental stress. […]
Records with an inconclusive call do not appear. The source made the active and inactive calls. Calls follow the shape of the dose curve; as a rule, active = well fitted cell-killing curve with a large enough effect in the repeat runs; inconclusive = weak or mixed curves, or effect the other way; inactive = flat fitted curve, though single readings scatter.
quantity.kind: activity change, negative = cytotoxicity

Solved entries:
molecule: COc1ccccc1OCC(O)CN1CCN(CC(=O)Nc2c(C)cccc2C)CC1 (configuration not stated)
activity change, negative = cytotoxicity: inactive
--
molecule: CC(C)(C)NCCNC(C)(C)C
activity change, negative = cytotoxicity: inactive
--
molecule: C=C1CC[C@H]2C[C@@H]1C2(C)C
activity change, negative = cytotoxicity: inactive
--
molecule: O=c1n(CCO)c(=O)n(CCO)c(=O)n1CCO
activity change, negative = cytotoxicity: inactive
--
molecule: COC(=O)C1=C(C)NC(C)=C(C(=O)OC)C1c1ccccc1[N+](=O)[O-]
activity change, negative = cytotoxicity: inactive

Lab note: measured activity change, negative = cytotoxicity of O=S(O)CO was inactive

Lab note: measured activity change, negative = cytotoxicity of C=C[Si](OC(=C)C)(OC(=C)C)OC(=C)C was inactive

Origin of the recorded values: PubChem BioAssay (Tox21)
